target-desc: UniProt:Q72874
yes if Ki is below 30 nM. no if not; exact matches included in no.

Here's what some known entries look like.
>  <compound>
CC(C)[C@H](NC(=O)[C@H](NCc1ccc(Cl)cc1)[C@H](O)[C@H](Cc1ccccc1)NC(=O)[C@@H](NC(=O)OCc1ccccc1)C(C)(C)C)C(=O)NCc1nc2ccccc2[nH]1

>  <class-name>
yes

$$$$
>  <compound>
CC[C@@H](C)[C@H](NC(=O)OCc1ccccc1)C(=O)N[C@@H](Cc1ccccc1)[C@@H](O)[C@@H](NCc1ccccc1)C(=O)N[C@H](C(=O)NCc1ccccc1)C(C)C

>  <class-name>
yes

$$$$
>  <compound>
CC(C)[C@H](NC(=O)OCc1ccccc1)C(=O)N[C@@H](Cc1ccccc1)[C@@H](O)[C@@H](NCc1ccccc1)C(=O)N[C@H](C(=O)NCCc1c[nH]c2ccccc12)C(C)C

>  <class-name>
yes

$$$$
>  <compound>
CC(C)[C@H](NC(=O)OCc1ccccc1)C(=O)N[C@@H](Cc1ccccc1)[C@@H](O)[C@@H](NCc1ccccc1)C(=O)N[C@@H](C(=O)NCc1ccccc1)C(C)(C)C.CC(C)[C@H](NC(=O)OCc1ccccc1)C(=O)N[C@@H](Cc1ccccc1)[C@@H](O)[C@@H](NCc1ccccc1)C(=O)N[C@H](C(=O)NCc1ccccc1)C(C)(C)C (stereo in doubt; 33(4:1))

>  <class-name>
no

$$$$
>  <compound>
CC(C)[C@H](NC(=O)OCc1ccccc1)C(=O)N[C@@H](Cc1ccccc1)[C@@H](O)[C@@H](NCCc1c[nH]c2ccccc12)C(=O)N[C@H](C(=O)NCc1ccccc1)C(C)C

>  <class-name>
no

$$$$
>  <compound>
CC(C)[C@H](NC(=O)[C@H](NCc1ccccc1)[C@H](O)[C@H](Cc1ccccc1)NC(=O)[C@H](CO)NC(=O)OCc1ccccc1)C(=O)NCc1ccccc1

>  <class-name>
no

$$$$
>  <compound>
CC(C)[C@H](NC(=O)CCc1nc2ccccc2[nH]1)C(=O)N[C@@H](Cc1ccccc1)[C@@H](O)[C@@H](NCc1ccccc1)C(=O)N[C@H](C(=O)NCc1ccccc1)C(C)C

>  <class-name>
yes

$$$$
>  <compound>
CC[C@H](NC(=O)OCc1ccccc1)C(=O)N[C@@H](Cc1ccccc1)[C@@H](O)[C@@H](NCc1ccccc1)C(=O)N[C@H](C(=O)NCc1ccccc1)C(C)C

>  <class-name>
yes

$$$$
>  <compound>
CC(C)[C@H](NC(=O)CCCCCN)C(=O)N[C@@H](Cc1ccccc1)[C@@H](O)[C@@H](NCc1ccccc1)C(=O)N[C@H](C(=O)NCc1ccccc1)C(C)C

>  <class-name>
no

$$$$

Please look at the following compound next.
Query :: Consider `CC(C)[C@H](NC(=O)OCc1ccccc1)C(=O)N[C@@H](Cc1ccccc1)[C@@H](O)[C@@H](NCc1cccc2ccccc12)C(=O)N[C@H](C(=O)NCc1ccccc1)C(C)C` . Does its Ki lie strictly below 30 nM?
Result :: yes
